COMPOUND: O=c1[nH]nccc1-c1ccccc1OC(F)(F)C(F)F
melting point: 178 °C
--
COMPOUND: CCN(CC)C(=O)c1c(S(N)(=O)=O)cc(OC)c(OC)c1C(C)C
melting point: 138 to 140 °C
--
COMPOUND: COc1ccc(C2(C#Cc3cccc(NC(C)=O)c3)CCCC(=O)C2)cc1OC1CCCC1 (stereo not given)
melting point: 58 to 60 °C
--
COMPOUND: CS(=O)(=O)c1ccc(-c2cc(=O)n(CC3CCC3)nc2-c2ccc(F)cc2)cc1
melting point: 74 to 76 °C
--
COMPOUND: COc1ccc2[nH]cc(/C=C/C(=O)c3ccncc3)c2c1
melting point: 236 to 239 °C
--
COMPOUND: CC(=O)NCC1CN(C(c2ccccc2)c2ccccc2)C1
melting point: 117 to 119 °C
--
COMPOUND: Cc1nc(-c2ccc(C(F)(F)F)cc2)sc1CCOc1ccc(CCC(=O)O)cc1
melting point: 128 to 130 °C
--
COMPOUND: C#Cc1c(-n2ccnc2)nc(C)nc1C(F)(F)F
melting point: 121 to 122 °C
--
COMPOUND: Fc1cccc(-c2nc3cc(Br)ccn3n2)c1
melting point: 186 to 188 °C
--
COMPOUND: CCc1nn2c(N3CCN(C)CC3)ccnc2c1S(=O)(=O)c1ccccc1
melting point: 206 to 207 °C
